Give cytotoxicity at 70.5 h for every item shown.
assay: Human HepG2 cell viability assay in 384 well format; type: toxicity, cell-based; design: dose 125 nL, time 70.5 hour; concentration not given beside the values; details: HepG2 cells, read-out: Inhibition
Write the number in % without appending the unit.

Requested field: cytotoxicity at 70.5 h. Item: Cc1cc(NC(=O)CN(CC(C)O)c2ccccc2)on1 (stereo unspecified) -3.15

Requested field: cytotoxicity at 70.5 h. Item: c1cnnc(NCC2CN(CCn3cncn3)CCO2)c1 (stereo unspecified) 11.7

Requested field: cytotoxicity at 70.5 h. Item: O=c1c2ccccc2nc2n1C(CSc1ccc(Cl)cc1)CN2 (stereo unspecified) 2.49

Requested field: cytotoxicity at 70.5 h. Item: O=C(c1ncc[nH]1)N1CCC(Cn2cc(-c3cccc(Cl)c3)nn2)CC1 20.7

Requested field: cytotoxicity at 70.5 h. Item: O=C(NCc1ccccn1)[C@@]12CCO[C@@H]1CCN(c1ncccn1)C2 -4.87

Requested field: cytotoxicity at 70.5 h. Item: OCC1(NCc2cnc(-c3ccsc3)s2)CCOCC1 -6.13

Requested field: cytotoxicity at 70.5 h. Item: CSCc1cc(F)ccc1CNCc1cccc(O)c1 -5.38

Requested field: cytotoxicity at 70.5 h. Item: CC(C)CNC(=O)[C@H]1CCS(=O)(=O)[C@@H]2CN(c3ncccn3)C[C@H]12 -10.6

Requested field: cytotoxicity at 70.5 h. Item: CCOc1ccnc(N2CCN(C(=O)CCc3ccsc3)CC2)n1 -7.66

Requested field: cytotoxicity at 70.5 h. Item: Cc1noc(C(C)N2CCC(c3nc4ccccc4[nH]3)CC2)n1 (stereo unspecified) -3.97

Requested field: cytotoxicity at 70.5 h. Item: CS(=O)(=O)N1CCC(C(=O)N2CCN(Cc3cccc(Cl)c3)CC2)CC1 -8.76
